# System: FLT3;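 also: KINOMEscan kinase panel screen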
# condition.description: concentration: 1 μM, replicates: in singlicate; n = 1
Listed here: items and their measured %Inh.
observable: %Inh (%)

molecule: Cc1ccc(-c2nc(Nc3ccncc3)c3ccccc3n2)s1 [GSK189015]
observable: %Inh
unit.string: %
reported.value: 23
--
molecule: CNC(=O)c1ccc(C)c(-n2c(C)cc(OCc3ccc(F)cc3F)c(Br)c2=O)c1
observable: %Inh
unit.string: %
reported.value: 0
--
molecule: COc1nccc(-c2c(-c3ccc(F)cc3)ncn2CCCN2CCOCC2)n1 [SB-282852]
observable: %Inh
unit.string: %
reported.value: 0
--
molecule: Cc1ccc(NC(=O)Nc2ccccc2F)cc1-c1ccc(C(=O)Nc2ccncc2)cc1 [GSK1398477]
observable: %Inh
unit.string: %
reported.value: 13
--
molecule: Cc1ccccc1Cn1ccn2c(=O)cc(N3CCOCC3)nc12 [GSK2269905]
observable: %Inh
unit.string: %
reported.value: 0
--
molecule: CC(C)c1ccc(O)cc1Nc1ccnc2ccc(C(F)(F)F)cc12 [GW482059]
observable: %Inh
unit.string: %
reported.value: 1
--
molecule: Cc1ccc(NC(=O)Nc2ccccc2)cc1-c1ccc(C(=O)Nc2ccncc2)cc1 [GSK1398471]
observable: %Inh
unit.string: %
reported.value: 36
--
molecule: O=c1cc(N2CCOCC2)nc2n(Cc3cccc(Cl)c3Cl)c3ccccc3n12 [GSK2299009]
observable: %Inh
unit.string: %
reported.value: 28
--
molecule: Cl.Cl.Cl.N#Cc1ccc(CCNc2nccc(-c3cccc(CN4CCNCC4)c3)n2)cc1 [GSK2137462]
observable: %Inh
unit.string: %
reported.value: 38
--
molecule: CC(=O)c1cccc(NC(=O)NC2CCN(c3ccnc(Nc4ccc(F)cc4)n3)C2)c1 (centres unmarked) [GSK1379710]
observable: %Inh
unit.string: %
reported.value: 0
--
molecule: CNc1nc(-c2ccc3c(N)n[nH]c3c2)cc(N2C[C@@H](C(=O)Nc3ccccc3)CC[C@H]2C)n1 [GSK2298859]
observable: %Inh
unit.string: %
reported.value: 0
--
molecule: CC(=O)c1c(C)c2cnc(Nc3ccc(N4CCNCC4)cn3)nc2n(C2CCCC2)c1=O
observable: %Inh
unit.string: %
reported.value: 0
--
molecule: COc1ccc(Nc2nccc(N3CCC(NC(=O)c4cc5ccccc5s4)C3)n2)cc1 (centres unmarked) [GSK1379738]
observable: %Inh
unit.string: %
reported.value: 0
--
molecule: Fc1ccc(-c2nc3n(c2-c2ccncc2)CCS3)cc1 [GI98581]
observable: %Inh
unit.string: %
reported.value: 0
--
molecule: O=C1NC(=O)C(c2ccc(Cl)cc2)=C1Nc1cccc(Cl)c1 [SB-317651]
observable: %Inh
unit.string: %
reported.value: 0
--
molecule: CCn1c(-c2ccccc2)nc2cnccc21 [SB-733416]
observable: %Inh
unit.string: %
reported.value: 0
--
molecule: Nc1nccc(-c2c(-c3ccc(F)cc3)ncn2C2CCN(Cc3ccccc3)CC2)n1 [SB-219980]
observable: %Inh
unit.string: %
reported.value: 0
--
molecule: O=C(Nc1n[nH]c2nc(-c3cccs3)c(Br)cc12)C1CCCC1 [SB-743341]
observable: %Inh
unit.string: %
reported.value: 39
--
molecule: COc1cccc(NC(=O)Nc2ccc(C)c(-c3ccc(C(=O)Nc4ccncc4)cc3)c2)c1 [GSK1398474]
observable: %Inh
unit.string: %
reported.value: 25
--
molecule: COc1ccc(Nc2nccc(N3CCC(NC(=O)C(C)c4ccc(Cl)cc4)C3)n2)cc1 (centres unmarked) [GSK1379735]
observable: %Inh
unit.string: %
reported.value: 10
--
molecule: CCc1ccc(-c2ccc3c(c2)-c2n[nH]cc2S(=O)(=O)N3C)cc1
observable: %Inh
unit.string: %
reported.value: 56
--
molecule: CC(=O)c1c(C)c2cnc(Nc3ccn(C)n3)nc2n(C2CCCC2)c1=O
observable: %Inh
unit.string: %
reported.value: 0
--
molecule: Cc1ccc(NC(=O)Nc2ccc(Cl)cc2)cc1-c1ccc(C(=O)Nc2ccncc2)cc1 [GSK1398472]
observable: %Inh
unit.string: %
reported.value: 22
--
molecule: COc1ccc(CSc2nnc(-c3ccc4nccn4c3)o2)cc1C(F)(F)F
observable: %Inh
unit.string: %
reported.value: 15
--
molecule: Cc1ccccc1-c1cc(-c2c[nH]nc2-c2ccccn2)ccn1 [GW680061]
observable: %Inh
unit.string: %
reported.value: 0
--
molecule: Cn1cncc1-c1cc2c(Nc3ccc(OCc4ccccc4)cc3)ncnc2cn1 [GW281179]
observable: %Inh
unit.string: %
reported.value: 0
--
molecule: COc1ccc2cc(-c3nc(-c4ccccc4C(C)C)[nH]c3-c3ccncc3)ccc2c1 [SB-660566]
observable: %Inh
unit.string: %
reported.value: 0
--
molecule: Nc1cccc(-c2ccc3c(N)n[nH]c3c2)n1 [GSK2192730]
observable: %Inh
unit.string: %
reported.value: 0
--
molecule: Cc1ccc(NC(=O)Nc2ccc(Cl)c(C(F)(F)F)c2)cc1-c1ccc(C(=O)Nc2ccncc2)cc1 [GSK1398470]
observable: %Inh
unit.string: %
reported.value: 27
--
molecule: Cc1c(Cn2c3ccccc3n3c(=O)cc(N4CCOCC4)nc23)cccc1C(F)(F)F [GSK2306394]
observable: %Inh
unit.string: %
reported.value: 11
--
molecule: CNc1cc(-c2ccc3c(N)n[nH]c3c2)nc(N)n1 [GSK2224810]
observable: %Inh
unit.string: %
reported.value: 0
--
molecule: O=C(Nc1n[nH]c2cc(-c3ccsc3)ccc12)C1CC1 [SB-732932]
observable: %Inh
unit.string: %
reported.value: 75
--
molecule: O=C1NC(=O)C(c2ccc(Cl)cc2)=C1Nc1ccc(O)cc1 [SB-340867]
observable: %Inh
unit.string: %
reported.value: 6
--
molecule: COc1ccc(CSc2nnc(-c3ccc4ncsc4c3)o2)cc1C(F)(F)F
observable: %Inh
unit.string: %
reported.value: 0
--
molecule: Cn1cnc2c(N)ncnc21 [SKF-97623]
observable: %Inh
unit.string: %
reported.value: 0
